Tested on: PC3 cells
PROTOCOL TEXT: Trypan blue assay, PC3
Format: cell-based, human
CONDITION INFO: PC3, 72 h, compound at IC50 concentration
REPORTED METRIC: Viability (%)

In [3]: df
Out[3]:
                               query_smiles  reported_metric  units_text  experimental_value
0  FC(F)(F)c1cccc(NC(=S)Nc2ccc(Cl)c(Cl)c2)c1    Viability (%)           %                  93
1  FC(F)(F)c1ccc(NC(=S)Nc2cccc(C(F)(F)F)c2)cc1    Viability (%)           %                  82
2   FC(F)(F)c1cccc(NC(S)=Nc2ccc(Cl)cc2Cl)c1    Viability (%)           %                  58
3    Fc1ccc(NC(=S)Nc2cccc(C(F)(F)F)c2)cc1Cl    Viability (%)           %                  93
4     FC(F)(F)c1cccc(NC(=S)Nc2ccc(Cl)cc2)c1    Viability (%)           %                  73

----------
Test system: K-562 cells
PROTOCOL TEXT: Trypan blue assay, K-562
Type: cell-based, human
CONDITION INFO: K-562, 72 h, compound at IC50 concentration
Description: In order to estimate the tumor and normal cell population density and their viability after treatment with compounds 1–3, 8, and 9, the trypan blue dye exclusion assay was performed. The live cell number of all cancerous cells incubated for 72 h with the studied thioureas was considerably lower in comparison with the controls (Table 2; Figure S1A). […] The live cell count was assessed by the trypan blue exclusion dye assay using an automated cell counter (CountessTM Invitrogen, Waltham, MA, USA). […]
REPORTED METRIC: Viability (%)

                               query_smiles  units_text  experimental_value
0   FC(F)(F)c1cccc(NC(S)=Nc2ccc(Cl)cc2Cl)c1           %                  85
1  FC(F)(F)c1ccc(NC(=S)Nc2cccc(C(F)(F)F)c2)cc1           %                  88
2     FC(F)(F)c1cccc(NC(=S)Nc2ccc(Cl)cc2)c1           %                  90
3  FC(F)(F)c1cccc(NC(=S)Nc2ccc(Cl)c(Cl)c2)c1           %                  55
4    Fc1ccc(NC(=S)Nc2cccc(C(F)(F)F)c2)cc1Cl           %                  93

----------
System: SW620 cells
PROTOCOL TEXT: MTT assay, SW620
Type: cell-based, human
CONDITION INFO: Homo sapiens, SW-620, 72 h, 50% growth inhibition
Measured IC50 of individual entries
REPORTED METRIC: IC50

COMPOUND	TEST SYSTEM	REPORTED METRIC	EXPERIMENTAL VALUE
FC(F)(F)c1cccc(NC(=S)NCCc2ccccc2)c1	SW620 cells	IC50	38.2 µM
N#Cc1ccc(NC(=S)Nc2cccc(C(F)(F)F)c2)cc1	SW620 cells	IC50	18.7 µM
FC(F)(F)c1ccc(NC(=S)Nc2cccc(C(F)(F)F)c2)cc1	SW620 cells	IC50	7.6 µM
Fc1ccc(NC(=S)Nc2cccc(C(F)(F)F)c2)cc1Cl	SW620 cells	IC50	9.4 µM
FC(F)(F)c1cccc(NC(=S)Nc2ccc(Cl)c(Cl)c2)c1	SW620 cells	IC50	1.5 µM
Cc1ccc(Cl)cc1NC(=S)Nc1cccc(C(F)(F)F)c1	SW620 cells	IC50	22.1 µM
FC(F)(F)c1cccc(NC(=S)Nc2ccc(Cl)cc2)c1	SW620 cells	IC50	6.7 µM
FC(F)(F)c1cccc(NC(S)=Nc2ccc(Cl)cc2Cl)c1	SW620 cells	IC50	5.8 µM
FC(F)(F)c1cccc(NC(=S)Nc2ccccc2C(F)(F)F)c1	SW620 cells	IC50	30.1 µM
COc1cccc2c1C(=O)c1c(O)c3c(c(O)c1C2=O)C[C@@](O)(C(=O)CO)C[C@@H]3O[C@H]1C[C@H](N)[C@H](O)[C@H](C)O1 [Doxorubicin, reference compound]	SW620 cells	IC50	0.3 µM
FC(F)(F)c1cccc(NC(=S)Nc2cccc(Cl)c2Cl)c1	SW620 cells	IC50	14 µM
FC(F)(F)c1cccc(NC(=S)Nc2ccc(Br)cc2)c1	SW620 cells	IC50	16.2 µM
Cc1c(Cl)cccc1NC(=S)Nc1cccc(C(F)(F)F)c1	SW620 cells	IC50	23.2 µM
